Examples of molecules with documented pIC50 follow.
# testedSystem: Zap-70 (Homo sapiens)
# Construct: Kinases are expressed as either kinase domains or full length constructs; made in house
# Sequence (P43403 whole entry, species assumed, the tested form may be a part): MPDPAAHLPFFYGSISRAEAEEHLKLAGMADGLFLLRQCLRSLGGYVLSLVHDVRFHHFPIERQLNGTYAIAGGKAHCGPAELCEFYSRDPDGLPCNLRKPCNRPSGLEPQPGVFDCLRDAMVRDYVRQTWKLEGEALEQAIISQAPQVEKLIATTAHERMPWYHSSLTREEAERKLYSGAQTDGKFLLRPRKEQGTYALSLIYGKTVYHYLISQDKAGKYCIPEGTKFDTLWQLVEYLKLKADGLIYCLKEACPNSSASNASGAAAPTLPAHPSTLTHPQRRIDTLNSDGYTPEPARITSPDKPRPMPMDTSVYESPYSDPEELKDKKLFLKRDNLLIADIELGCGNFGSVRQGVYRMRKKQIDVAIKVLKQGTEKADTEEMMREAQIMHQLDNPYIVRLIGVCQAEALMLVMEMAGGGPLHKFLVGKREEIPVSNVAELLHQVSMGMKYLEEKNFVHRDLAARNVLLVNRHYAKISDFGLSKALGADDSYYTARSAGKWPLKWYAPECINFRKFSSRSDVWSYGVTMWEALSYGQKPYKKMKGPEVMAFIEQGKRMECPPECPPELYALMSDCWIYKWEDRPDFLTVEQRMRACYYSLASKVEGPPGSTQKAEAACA
# assayMethodText: Kinase inhibition assay (33P transfer), Zap-70
# Assay type: biochemical
# appliedConditions: read-out: Zap-1
pIC50: −log10 of the molar value.

{"molecule": "O=c1[nH]c2ccccc2n1-c1ncnc(Nc2cc(C(F)(F)F)cc(C(F)(F)F)c2)n1 [Compound 506]", "pIC50": "< 4.99"}
{"molecule": "COc1cc(Nc2ncnc(NC3CC3c3ccccc3)n2)cc(OC)c1OCCN1CCOCC1 (stereo not drawn) [Compound 563]", "pIC50": "< 5.04"}
{"molecule": "CN(c1cccc(Cl)c1)c1ncnc(Nc2cc(C(C)(C)C)on2)n1 [Compound 754]", "pIC50": "< 4.90"}

Consider CCc1cccc(Nc2ncnc(-n3c(N)nc4ccccc43)n2)c1 [Compound 655] . Its measured pIC50 is < 4.87

Consider COc1cc(Nc2ncnc(Nc3cc(-c4ccc(C(=O)NCCc5ccccc5)cc4)n[nH]3)n2)cc(OC)c1OC [Compound 1006] . Its measured pIC50 is < 5.10

Consider Nc1nc2ccccc2n1-c1ncnc(N2C(=O)c3ccccc3C2=O)n1 [Compound 653] . Its measured pIC50 is < 4.90

----------
Form: system (Ret-1 (Homo sapiens, UniProt P07949)), quantity (IC50), values below.

{"compound": "COc1cc(Nc2ncnc(-c3c(O)[nH]c4ccc(Cl)cc34)n2)cc(OC)c1OC", "testedSystem": "Ret-1 (Homo sapiens, UniProt P07949)", "assayEndpoint": "IC50", "valueMeasured": "5.61 to 8.18 µM"}
{"compound": "COc1ccc(Nc2ncnc(Nc3cc(OC)c(OC)c(OC)c3)n2)cc1O", "testedSystem": "Ret-1 (Homo sapiens, UniProt P07949)", "assayEndpoint": "IC50", "valueMeasured": "< 1 µM"}
{"compound": "COc1cc(Nc2ncnc(-n3c(N)nc4ccccc43)n2)cc(OC)c1OC", "testedSystem": "Ret-1 (Homo sapiens, UniProt P07949)", "assayEndpoint": "IC50", "valueMeasured": "1.02 to 6.1 µM"}

Tested system Ret-1 (Homo sapiens, UniProt P07949); IC50 recorded for C#Cc1cccc(Nc2ncnc(Nc3ccc(OC)c(OC)c3)n2)c1 was > 13 µM

Tested system Ret-1 (Homo sapiens, UniProt P07949); IC50 recorded for CCOC(=O)C(Nc1nc2ccccc2n1-c1ncnc(Nc2cc(OC)c(OC)c(OC)c2)n1)c1ccccc1 (centres unmarked) was < 0.72 µM

Tested system Ret-1 (Homo sapiens, UniProt P07949); IC50 recorded for COc1cc(Nc2ncnc(N3CCc4ccccc43)n2)cc(OC)c1OC was > 11.9 µM

Tested system Ret-1 (Homo sapiens, UniProt P07949); IC50 recorded for COc1cc(Nc2ncnc(Nc3ccc(C(C)C)cc3)n2)cc(OC)c1OC was > 11.4 µM

Tested system Ret-1 (Homo sapiens, UniProt P07949); IC50 recorded for COc1cc(Nc2ncnc(Nc3ccc4ccccc4c3)n2)cc(OC)c1OC was 5.95 to 8.68 µM

Tested system Ret-1 (Homo sapiens, UniProt P07949); IC50 recorded for COc1ccc(Nc2ncnc(Nc3ccc(Oc4ccccc4)cc3)n2)cc1OC was 5.78 to 8.42 µM

Tested system Ret-1 (Homo sapiens, UniProt P07949); IC50 recorded for COc1cc(Nc2ncnc(-n3c(NCc4ccccc4F)nc4ccccc43)n2)cc(OC)c1OC was < 0.798 µM
